system: BT-549 breast; assay: NCI-60 one-dose screen, 48 h; conditions: 10 µM unless noted
The panel holds about 83,000 compounds, 20% with a hit somewhere; the sample as a whole holds those more often. The source made the active and inactive calls. Rule for the calls: active = growth percent below 10; inactive = the rest.
Please answer using one outcome listed in active, inactive

INSERT INTO measurements (molecule, assigned_label) VALUES
  ('COc1cc(C(=O)CCCl)ccc1O', 'inactive'),
  ('COc1ccc(C(=O)c2cc(OC)c(OC)c(OC)c2)cc1/C=C/C(=O)c1ccc2c(c1)OCO2', 'active'),
  ('COC(=O)CCCCCN=Cc1c(O)c(O)c(C(C)C)c2cc(C)c(-c3c(C)cc4c(C(C)C)c(O)c(O)c(C=NCCCCCC(=O)OC)c4c3O)c(O)c12', 'inactive'),
  ('CCn1cc(C2NC(=O)c3cc(F)ccc3N2)c2cccc(Cl)c21 (stereo unspecified)', 'inactive'),
  ('c1cncc(CNc2ccccc2-c2nnc(Nc3ccc4c(c3)OCCO4)o2)c1', 'inactive');

Continue with the next molecule.
How did this test come out for CCN(C(=O)c1cc2ncccc2[nH]1)[C@H]1CCC[C@@H](NCc2cccc(F)c2)C1 ?
inactive

###

Reported values of growth for individual entries
tested on: UACC-257 melanoma; test: NCI-60 one-dose screen, 48 h (100 = growth as untreated, 0 = no growth, -100 = all killed); details: 10 µM
Compounds without any hit were thinned out: in the full panel of roughly 83,000, 20% have a hit.
Field format: number, assumed %, no unit text.

INSERT INTO assay_data (compound, readout_type, value_observed) VALUES
  ('Cc1nn(-c2ccc(Cl)cc2)c(=O)n1CCOc1ccccc1Cl', 'growth', 105),
  ('Clc1nc2ccccc2nc1CI', 'growth', 119),
  ('NC(CC(N)C(=O)O)C(=O)O (stereo not given)', 'growth', 95.2),
  ('Cn1cc(C=O)c2ccccc21', 'growth', 105),
  ('O=C(c1ccncc1)N1N=C(c2ccc(Cl)cc2)CC1c1c[nH]c2ccccc12 (stereo not given)', 'growth', 95.9);

The recorded growth for entry COc1ccc(-c2nc3sccn3c2-c2ccnc(NCCCNS(=O)(=O)c3ccc(F)cc3)n2)cc1 equals 26.1

The recorded growth for entry COc1ccc(/C=C/C(=O)c2ccc(NC(=O)CN3CCN(c4cc5c(cc4F)c(=O)c(C(=O)O)cn5C4CC4)CC3)cc2)cc1 equals 96.5

The recorded growth for entry COC1=CC(c2ccc[nH]2)=N/C1=C\c1[nH]c(C)c(C(=O)CCCCC(=O)Oc2ccc3c(c2)CCC2C3CC[C@]3(C)[C@@H](O)CC[C@@H]23)c1C (stereo not given in full) equals 103

The recorded growth for entry COc1ccc(NC(=O)c2cc3ccccc3nc2Nc2cc(OC)c(OC)c(OC)c2)cc1 equals 83.6

The recorded growth for entry CCn1cc(C(=O)O)c(=O)c2cc(F)c(N3CCN(S(=O)(=O)c4c(C)cc(C)cc4C)CC3)cc21 equals 106

###

test system: UACC-257 melanoma; assay: NCI-60 one-dose screen, 48 h (100 = growth as untreated, 0 = no growth, -100 = all killed); conditions: 10 µM
About 83,000 compounds went through this panel and 20% of them were active in at least one assay; those are over-represented in the sample as a whole. Active and inactive are the calls of the source. How the source made its calls: active means growth percent below 10; inactive means the rest.
readout_type: growth

Example results:
INSERT INTO measurements (compound, readout_type, value_observed) VALUES
  ('O=S(=O)(O)CCl', 'growth', '98.5% (inactive)'),
  ('COc1ccc(-c2nc3sccn3c2-c2ccnc(NCCCNS(=O)(=O)c3ccc4ccccc4c3)n2)cc1', 'growth', '82.8% (inactive)'),
  ('CCn1c(=O)c2c(=O)c3c4c(oc3oc2c2ccccc21)C(=O)c1ccccc1C4=O', 'growth', '90.6% (inactive)'),
  ('Cn1c(C(N)=O)cc2c1-c1nc(NC3CCCCC3)ncc1CCC2', 'growth', '106% (inactive)'),
  ('Cc1sc(N=Nc2ccc(N(C)C)cc2)[n+]([O-])c1C', 'growth', '105% (inactive)'),
  ('O=C(Nc1ccc(Cl)cc1)c1cc(-c2ccc(F)cc2)c2sc(=O)[nH]c2n1', 'growth', '-8.82% (active)');

The recorded growth for entry COc1ccc(S(=O)(=O)NCCNc2nccc(-c3c(-c4ccccc4)nc4sccn34)n2)cc1 equals 46% (inactive)

The recorded growth for entry O=S(=O)(NCCNc1nccc(-c2c(-c3ccccc3)nc3sccn23)n1)c1ccc(O)cc1 equals 82.4% (inactive)

The recorded growth for entry COc1cccc(NC(=O)Cn2cc3c(=O)oc4ccccc4c3n2)c1 equals 101% (inactive)

The recorded growth for entry COc1cc(/C=C2\C=C(c3ccc(F)cc3)N(Cc3ccccc3)C2=O)cc(OC)c1OC equals 79.3% (inactive)

The recorded growth for entry O=C(Nc1cc(C(F)(F)F)cc(C(F)(F)F)c1)Nc1ccc(OCc2nnc(-c3ccc(Cl)cc3)o2)c(F)c1 equals 2.65% (active)

The recorded growth for entry CCC1CCc2nc3sc(C(=O)Nc4ccccc4F)c(N)c3cc2C1 (configuration not stated) equals 57.5% (inactive)

The recorded growth for entry Cc1ccc(C2=NN(c3ccc(S(N)(=O)=O)cc3)C(c3cn(-c4ccccc4)nc3-c3ccccc3)C2)cc1 (configuration not stated) equals 98.8% (inactive)

The recorded growth for entry Cc1cccc(NC(=O)c2sc3nc4c(cc3c2N)CCCC4)c1 equals 46.3% (inactive)

The recorded growth for entry N#CC1=C(N)OC2=C(C(=O)CCC2)C1c1ccco1 (configuration not stated) equals 102% (inactive)

The recorded growth for entry NCCSC(c1ccccc1)(c1ccccc1)c1ccccc1 equals 47.7% (inactive)

The recorded growth for entry Nc1c(C(=O)Nc2ccccc2)sc2nc3c(cc12)CN(Cc1ccccc1)CC3 equals 74% (inactive)

The recorded growth for entry Cc1ccc(C(=O)c2sc3nc4c(cc3c2N)CCCC4)c(C)c1 equals 57.6% (inactive)
